Molecular target: Rat recombinant PDE10A (rPDE10A2) (Rattus norvegicus, UniProt Q9QYJ6)
Construct: made in house; host or cells: Sf9 insect cells, baculovirus
Sequence (Q9QYJ6 whole entry): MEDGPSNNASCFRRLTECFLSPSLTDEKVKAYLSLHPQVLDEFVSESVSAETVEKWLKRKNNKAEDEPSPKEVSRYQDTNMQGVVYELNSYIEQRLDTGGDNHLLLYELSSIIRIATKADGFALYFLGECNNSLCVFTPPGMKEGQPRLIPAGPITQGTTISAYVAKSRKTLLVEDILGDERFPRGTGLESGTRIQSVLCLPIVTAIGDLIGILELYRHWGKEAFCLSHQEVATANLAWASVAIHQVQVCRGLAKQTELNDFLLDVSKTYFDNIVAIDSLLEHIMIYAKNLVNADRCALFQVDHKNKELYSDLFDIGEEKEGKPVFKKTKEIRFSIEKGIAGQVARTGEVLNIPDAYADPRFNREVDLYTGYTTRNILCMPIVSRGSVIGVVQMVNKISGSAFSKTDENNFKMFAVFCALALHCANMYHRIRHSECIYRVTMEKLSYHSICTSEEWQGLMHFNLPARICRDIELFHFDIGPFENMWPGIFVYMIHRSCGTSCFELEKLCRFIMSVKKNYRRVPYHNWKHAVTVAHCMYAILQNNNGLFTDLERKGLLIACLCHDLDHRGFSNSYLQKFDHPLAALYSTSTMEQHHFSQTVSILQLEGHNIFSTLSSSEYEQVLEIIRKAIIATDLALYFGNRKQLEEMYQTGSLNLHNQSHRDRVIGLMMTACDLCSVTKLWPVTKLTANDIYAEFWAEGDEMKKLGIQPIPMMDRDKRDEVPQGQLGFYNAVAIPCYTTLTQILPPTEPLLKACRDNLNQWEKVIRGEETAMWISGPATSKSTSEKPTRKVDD
Assay: In vitro assay PDE10A (SPA, 3H-cAMP)
Assay type: biochemical
Details: pIC50 corresponds to the -log IC50 expressed in mol/L; read-out: PDE10A2 pIC50 (converted)
Mark met only when IC50 stays strictly below 200 nM. Values equal to the cut-off are not met.

Would you please look over these solved cases?
{"molecule": "Cc1nc2c(N3CCOCC3)nccn2c1-c1cnn(CC2CC2)c1", "className": "met"}
{"molecule": "Cc1nc2c(N3CCOCC3)nccn2c1-c1cnn(CC2CCCCO2)c1 (single isomer, unassigned) [compound 70]", "className": "met"}
{"molecule": "COC(C)(C)CCc1ccc(-c2c(C)nc3c(N4CCOCC4)nccn23)cn1", "className": "not met"}
{"molecule": "COCCn1cc(-c2c(C)nc3c(N4CCOCC4)nc(C4CC4)cn23)cn1", "className": "not met"}
{"molecule": "COCCn1cc(-c2c(C)nc3c(N4CCOCC4)nc(CCC(F)(F)F)cn23)cn1", "className": "not met"}

Req: Check if IC50 falls below 200 nM for Cc1nc2c(N3CCOCC3)nccn2c1-c1cnn(CC2CCCO2)c1 (single isomer, unassigned) [compound 90] .
Resp: met

Req: How about COC(C)(C)Cn1cc(-c2c(C)nc3c(N4CCOCC4)nccn23)cn1 ?
Resp: met

Req: Now consider Cc1nc2c(N3CCOCC3)nccn2c1-c1ccc(OCC(F)(F)F)nc1 .
Resp: not met
